Tested on: BxPC-3
method-summary: In vitro cytotoxicity assay, BxPC-3
Type: cell-based
condition-label: BxPC-3 human pancreatic adenocarcinoma cell line
parameter-measured: pIC50
Here pIC50 is given on a logarithmic scale as minus log10 of the concentration in mol/L.

Fill blank: measured pIC50 of the molecule CN[C@@H]1C[C@H]2O[C@@](C)([C@@H]1OC)n1c3ccccc3c3c4c(c5c6ccccc6n2c5c31)C(=O)NC4 is ____.
8.27
